Origin of the recorded values: patent US11352350B2

# target.desc: IRAK4 (Homo sapiens (Human))
# assay.overview: hPBMC IRAK4 degradation flow assay
# Assay type: cell-based
# assay.context: hPBMC monocyte, 20 hrs; read-out: IRAK4 degradation in hPBMC monocyte: DC50
quantity.measured: DC50

{"columns": ["compound", "quantity.measured", "reading"],
 "data": [
  ["Cn1c(=O)n(C2CCC(=O)NC2=O)c2cccc(CCCOC3CCN(C[C@H]4CC[C@H](n5cc(NC(=O)c6cnn7cccnc67)c(N6CCOCC6)n5)CC4)CC3)c21 (stereo partly drawn)", "DC50", "100 to 1000 nM"],
  ["Cn1c(=O)n(C2CCC(=O)NC2=O)c2cccc(CCCOC3CCN(C[C@H]4CC[C@H](n5cc(NC(=O)c6cnn7ccc(N8CCCOCC8)nc67)c(C(F)F)n5)CC4)CC3)c21 (stereo partly drawn)", "DC50", "< 10 nM"],
  ["Cn1c(=O)n(C2CCC(=O)NC2=O)c2cccc(CCC3CC4(CCN(C[C@H]5CC[C@H](n6cc(NC(=O)c7cnn8ccc(N9C[C@H]%10C[C@@H]9CO%10)nc78)c(C(F)F)n6)CC5)CC4)C3)c21 (stereo partly drawn)", "DC50", "< 10 nM"]
]}

====

# target.desc: IRAK4 (Homo sapiens (Human), UniProt Q9NWZ3)
# Sequence (Q9NWZ3 whole entry): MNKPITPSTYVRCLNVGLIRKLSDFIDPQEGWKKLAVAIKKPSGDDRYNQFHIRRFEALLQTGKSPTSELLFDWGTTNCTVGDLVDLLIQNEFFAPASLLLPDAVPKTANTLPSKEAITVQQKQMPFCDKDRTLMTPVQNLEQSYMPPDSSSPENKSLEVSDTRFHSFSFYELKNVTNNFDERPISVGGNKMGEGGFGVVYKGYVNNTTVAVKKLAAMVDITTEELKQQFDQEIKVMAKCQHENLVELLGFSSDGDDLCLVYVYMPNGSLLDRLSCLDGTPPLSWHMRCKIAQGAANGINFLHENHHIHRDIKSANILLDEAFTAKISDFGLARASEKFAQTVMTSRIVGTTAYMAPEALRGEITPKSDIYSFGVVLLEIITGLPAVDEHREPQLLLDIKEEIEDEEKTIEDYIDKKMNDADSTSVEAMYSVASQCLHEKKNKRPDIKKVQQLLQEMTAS
# assay.overview: hPBMC IRAK4 degradation flow assay
# Format: cell-based
# assay.context: hPBMC monocyte, 20 hrs; read-out: IRAK4 degradation in hPBMC monocyte: DC50

{"columns": ["compound", "DC50"],
 "data": [
  ["Cn1c(=O)n(C2CCC(=O)NC2=O)c2cccc(CN3C[C@H]4CC[C@@H](C3)N4CC[C@H]3CC[C@H](n4cc(NC(=O)c5cnn6ccc(N7C[C@H]8C[C@@H]7CO8)nc56)c(C(F)F)n4)CC3)c21 (stereo partly shown) [I-511]", "< 10 nM"],
  ["O=C1CCC(n2c3ccccc3c3c(CCCN4CC5(CCN(C(=O)[C@H]6CC[C@H](n7cc(NC(=O)c8cnn9ccc(N%10C[C@H]%11C[C@@H]%10CO%11)nc89)c(C(F)F)n7)CC6)CC5)C4)ccnc32)C(=O)N1 (stereo partly shown) [I-447]", "< 10 nM"],
  ["C[C@H](CCc1cccc2c1n(C)c(=O)n2C1CCC(=O)NC1=O)OC1CCN(C[C@H]2CC[C@H](n3cc(NC(=O)c4cnn5ccc(N6C[C@H]7C[C@@H]6CO7)nc45)c(C(F)F)n3)CC2)CC1 (stereo partly shown) [I-557]", "< 10 nM"],
  ["C[C@H](/C=C/c1cccc2c1n(C)c(=O)n2C1CCC(=O)NC1=O)OC1CCN(C[C@H]2CC[C@H](n3cc(NC(=O)c4cnn5ccc(N6C[C@H]7C[C@@H]6CO7)nc45)c(C(F)F)n3)CC2)CC1 (stereo partly shown) [I-559]", "< 10 nM"],
  ["Cn1c(=O)n(C2CCC(=O)NC2=O)c2cccc(CN3CCN(CC[C@H]4CC[C@H](n5cc(NC(=O)c6cnn7ccc(N8C[C@H]9C[C@@H]8CO9)nc67)c(C(F)F)n5)CC4)CC3)c21 (stereo partly shown) [I-510]", "< 10 nM"],
  ["Cn1c(=O)n(C2CCC(=O)NC2=O)c2ccc(C#CCCCNC[C@H]3CC[C@H](n4cc(NC(=O)c5cnn6ccc(N7C[C@H]8C[C@@H]7CO8)nc56)c(C(F)F)n4)CC3)cc21 (stereo in doubt) [I-512]", "100 to 1000 nM"],
  ["CN(C[C@H]1OC[C@H](n2cc(NC(=O)c3cnn4ccc(N5C[C@H]6C[C@@H]5CO6)nc34)c(C(F)F)n2)CO1)C1CCN(Cc2cccc3c2n(C)c(=O)n3C2CCC(=O)NC2=O)CC1 (stereo partly shown) [I-507]", "< 10 nM"],
  ["C[C@@H](C#Cc1cccc2c1n(C)c(=O)n2C1CCC(=O)NC1=O)OC1CCN(C[C@H]2CC[C@H](n3cc(NC(=O)c4cnn5ccc(N6C[C@H]7C[C@@H]6CO7)nc45)c(C(F)F)n3)CC2)CC1 (stereo partly shown) [I-544]", "100 to 1000 nM"],
  ["CN1C(=O)C(C2CCC(=O)NC2=O)c2cc(C#CCOC3CCN(C[C@H]4CC[C@H](C5N=C(NC(=O)c6cnn7ccc(N8C[C@H]9C[C@@H]8CO9)nc67)C(C(F)F)=N5)CC4)CC3)ccc21 (stereo partly shown) [I-548]", "100 to 1000 nM"],
  ["Cn1c(=O)n(C2CCC(=O)NC2=O)c2cccc(C#CCN3CCC4(CC3)CN(C[C@H]3CC[C@H](n5cc(NC(=O)c6cnn7ccc(N8C[C@H]9C[C@@H]8CO9)nc67)c(C(F)F)n5)CC3)C4)c21 (stereo partly shown) [I-485]", "< 10 nM"],
  ["Cc1ccc(-c2nn([C@H]3CC[C@H](CN4CCC(OCCCc5cccc6c5n(C)c(=O)n6C5CCC(=O)NC5=O)CC4)CC3)cc2NC(=O)c2cnn3ccc(N4C[C@H]5C[C@@H]4CO5)nc23)nc1 (stereo partly shown) [I-484]", "100 to 1000 nM"],
  ["Cn1c(=O)n(C2CCC(=O)NC2=O)c2cccc(CCCN3CC4(CCN(C(=O)[C@H]5CC[C@H](n6cc(NC(=O)c7cnn8cccnc78)c(N7CCOCC7)n6)CC5)CC4)C3)c21 (stereo partly shown) [I-494]", "100 to 1000 nM"],
  ["Cn1c(=O)n(C2CCC(=O)NC2=O)c2cccc(CCCN3CC4CN(C(=O)[C@H]5CC[C@H](n6cc(NC(=O)c7cnn8ccc(N9C[C@H]%10C[C@@H]9CO%10)nc78)c(C(F)F)n6)CC5)CC4C3)c21 (stereo partly shown) [I-449]", "< 10 nM"],
  ["CN(CCCc1cccc2c1n(C)c(=O)n2C1CCC(=O)NC1=O)C(=O)c1ccc(N2CCC(n3cc(NC(=O)c4cnn5ccc(N6C[C@H]7C[C@@H]6CO7)nc45)c(C(F)F)n3)CC2)cc1 (stereo partly shown) [I-479]", "100 to 1000 nM"],
  ["Cn1c(=O)n(C2CCC(=O)NC2=O)c2cccc(CCCOC[C@@H]3CN(C[C@H]4CC[C@H](n5cc(NC(=O)c6cnn7ccc(N8CCOCC8)nc67)c(C(F)F)n5)CC4)CCO3)c21 (stereo partly shown) [I-448]", "< 10 nM"],
  ["C[C@@H]1CN(c2ccn3ncc(C(=O)NC4=NC([C@H]5CC[C@H](CN6CCC(CC#Cc7cccc8c7n(C)c(=O)n8C7CCC(=O)NC7=O)CC6)CC5)N=C4C(F)F)c3c2)C[C@@H](C)O1 (stereo partly shown) [I-528]", "< 10 nM"],
  ["Cn1c(=O)n(C2CCC(=O)NC2=O)c2cccc(CN3CC4(CCN(Cc5ccc(-n6cc(NC(=O)c7cnn8ccc(N9C[C@H]%10C[C@@H]9CO%10)nc78)c(C(F)F)n6)cc5)CC4)C3)c21 (stereo partly shown) [I-464]", "10 to 100 nM"],
  ["Cn1c(=O)n(C2CCC(=O)NC2=O)c2cccc(C#CCOC3CCN(C[C@H]4CC[C@H](n5cc(NC(=O)c6cnn7ccc(N8CCOC9(CCC9)C8)nc67)c(C(F)F)n5)CC4)CC3)c21 (stereo partly shown) [I-541]", "< 10 nM"],
  ["CN(CCCC#Cc1ccc2c(c1)n(C)c(=O)n2C1CCC(=O)NC1=O)C[C@H]1CC[C@H](n2cc(NC(=O)c3cnn4ccc(N5C[C@H]6C[C@@H]5CO6)nc34)c(C(F)F)n2)CC1 (stereo partly shown) [I-546]", "10 to 100 nM"]
]}

====

# target.desc: IRAK4 (Homo sapiens (Human))
# assay.overview: IRAK4 MSD degradation in OCI-LY10
# Type: cell-based
# assay.context: OCI-LY10, 4 hrs, MSD; read-out: IRAK4 MSD degradation in OCI-LY10 at 4 hrs: Average external-Abs DC50
quantity.measured: DC50

{"columns": ["compound", "quantity.measured", "reading"],
 "data": [
  ["CN(CCCCCCCNC(=O)c1ccc(CNCc2ccc(-c3ccc4c(cnn4CC4CC4)c3)cc2)cc1)C[C@H]1CC[C@H](n2cc(NC(=O)c3coc(-c4ccnc(NCC5CC5)c4)n3)c(C(F)F)n2)CC1 [I-135]", "DC50", "100 to 1000 nM"],
  ["Cn1c(=O)n(C2CCC(=O)NC2=O)c2ccc(CCCOCC3CCN(C[C@H]4CC[C@H](n5cc(NC(=O)c6cnn7ccc(N8CCNCC8)nc67)c(C(F)F)n5)CC4)CC3)cc21 (some centres unmarked) [I-163]", "DC50", "< 10 nM"],
  ["CN1C(=O)C(C2CCC(=O)NC2=O)c2cccc(CCCOC3CCN(C[C@H]4CC[C@H](n5cc(NC(=O)c6cnn7ccc(NCCC(C)(C)O)nc67)c(C(F)F)n5)CC4)CC3)c21 (some centres unmarked) [I-288]", "DC50", "< 10 nM"],
  ["CN(CC[C@H]1CN(CCCc2ccc3c(c2)n(C)c(=O)n3C2CCC(=O)NC2=O)CCO1)C[C@H]1CC[C@H](n2cc(NC(=O)c3coc(-c4ccnc(NCC5CC5)c4)n3)c(C(F)F)n2)CC1 (some centres unmarked) [I-96]", "DC50", "10 to 100 nM"],
  ["CC[C@H]1C(COc2ncc(C#C[C@H]3CC[C@H](CN(C)CCN4CCO[C@H](CCNc5cccc6c5C(=O)N(C5CCC(=O)NC5=O)C6=O)C4)CC3)c3cc(C(N)=O)c(OC)cc23)NC(=O)[C@H]1F (some centres unmarked) [I-334]", "DC50", "100 to 1000 nM"]
]}
